Hello, the source for this data is patent US20220106391A1, in case you need it.

Catalogue of IC50 (pERK 1/2, CHO cells expressing human TrkA) values
# Experimental system: T1, canine beta-NGF (cNGF) (canine, UniProt Q29074 110-229 (pig entry))
# T1 chain: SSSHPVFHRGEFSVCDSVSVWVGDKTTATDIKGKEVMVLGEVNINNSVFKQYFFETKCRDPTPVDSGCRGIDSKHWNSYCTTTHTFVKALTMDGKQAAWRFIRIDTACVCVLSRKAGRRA
# Assay details: cell-based or functional assay
Quick note: give the figure in nM, leave out the unit.

Reference set, count: 4
Binder	Recorded measurement
15H02-02E01 (antibody, IgG1, V domains shown) VH: EVQLEQSGPGLVAPSQSLSITCTVSGFSLTGYGVNWVRQPPGKGLEWLGMIWGDGSTDYNSALKSRLSISKDNSKSQVFLKMNSLQTDDTARYYCARDGYYYGTTWYFDVWGAGTTVTVSS VL: DIVLTQSTSSLSASLGDRVTISCRASQDISNYLNWYQQKPDGTIKLLIYYTSRLHSGVPSRFSGSGSGTDYSLTISNLEQEDIATYFCQQGSTLPRTFGGGT	18.8
02B04-02A08 (antibody, V domains shown) VH: EVKLEESGPGLVAPSQSLSITCTVSGFSLTGYGVNWVRQPPGKGLEWLGMIWGDGSTDYNSALKSRLNISKDNSKSQVFLKMDSLQTDDTARYYCARGGYDYDVPFFDYWGQGTTLTVSS VL: DIVMTQTTSSLSASLGDRVTISCRASQDISNYLNWYQQKPDGTVKLLIYYTSRLHSGVPSRFSGSGSGTDYSLTISNLEQEDIATYFCQQGNMFPYTLGGGT	4
30E01-02A11 (antibody, IgG1, V domains shown) VH: QVKLEESGPGLVAPSQSLSITCTVSGFSLTGYGVNWVRQPPGKGLEWLGMIWGDGSTDYNSALKSRLSISKDNSKSQVFLKMNSLQTDDTARYYCARDGYYYGTTWYFDVWGAGTTVTVSS VL: DIVLTQTTSSLSASLGDRVTISCRASQDISNYLNWYQQKPDGTIKLLIYYTSRLHSGVPSRFSGSGSGTDYSLTISNLEQEDIATYFCQQGSTLPRTFGGGT	9.8
20D11-02E10 (antibody, IgG1, V domains shown) VH: EVQLEESGPGLVAPSQSLSITCTVSGFSLTGYGVNWVRQPPGKGLEWLGMIWGDGSTDYNSALKSRLSISKDNSKSQVFLKMNSLQTDDTARYYCARDGYYYGTTWYFDVWGAGTTVTVSS VL: DIVITQTPLSLPVSLGDQASISCRSSQSIVHINRHTYLGWYLQKPGQSLKLLIYGVSNRFSGVPDRFSGSGSGTDFTLKISRVEAEDMGVYYCFQGTHVPFTFGSGT	5.5

Request: Retrieve IC50 (pERK 1/2, CHO cells expressing human TrkA) measured for 26C08-02F06 (antibody, IgG1, V domains shown) VH: EVKLEESGPGLVAPSQSLSITCTVSGFSLTGYGVNWVRQPPGKGLEWLGMIWGDGSTDYNSALKSRLSISKDNSKSQVFLKMNSLQTDDTARYYCARGGYDYDVSFFDYWGQGTTLTVSS VL: DIVLTQTTSSLSASLGDRVTISCRASQDISNYLNWYQQKPDGTVKLLIYYTSRFHSGVPSRFSGSGSGTDYSLTISNLEHEDIATYFCQQGNTLPYTFGGGT and print it.
Result: 7.1
